- System: SF-268 CNS
- METHOD_SUMMARY: NCI-60 one-dose screen, 48 h (100 = growth as untreated, 0 = no growth, -100 = all killed)
- TEST_CONTEXT: 10 µM unless noted
- Procedure: Cells are grown in 96 well plates and exposed to the test compound for 48 hours. Compounds are tested at a single concentration, which is 10^-5 M for most compounds. The reported endpoint is percent growth (GI% or GIPRCNT), where numbers from 0 - 100% represent growth inhibition, and numbers from -100% - 0 represent cell death. For example, a value of 40 represents 60% growth inhibition. A value of 0 means no net growth occurred over the course of the experiment. […]
About 83,000 compounds went through this panel and 20% of them were active in at least one assay; those are over-represented in the sample as a whole.
Item-by-item account of growth
Please state the figure in %; there is no need to write the unit.

1) Cc1cccc(NC(=O)CCc2ccc(N3C(N)=NC(N)=NC3(C)C)cc2)c1: 33.8
2) COc1ccc2c(c1)nnc1c3cccnc3[nH]c21: -24.8
3) COc1cccc(-c2nc3sccn3c2-c2ccnc(NCCNC(=O)Nc3cccc(C(F)(F)F)c3)n2)c1: 62.3
4) O=C(O)c1cccc2oc(-c3ccccc3O)nc12: 45
5) CCn1cc(/C=C2\Oc3cc(OCC#N)ccc3C2=O)c2cc(OC)ccc21: 55.9
6) CCCCCCCC(=O)SCC/C=C/[C@@H]1CC(=O)NCc2nc(cs2)C2=N[C@@](C)(CS2)C(=O)N[C@@H](C(C)C)C(=O)N1: 18
7) O=C(c1cc(-c2ccc(Cl)cc2)nc2ccccc12)N1N=C(c2ccccc2)CC1c1cc(-c2ccccc2)nn1-c1ccccc1 (configuration not stated): 62.4
8) Cc1cn(C2CC(N=[N+]=[N-])C(COP(=O)(O)OP(=O)(O)OP(=O)(O)O)O2)c(=O)[nH]c1=O (configuration not stated): 103
9) CN1CCN(CC(O)COc2c(Br)c(Br)c(Br)c3c2OC(C)(C)C3)CC1 (configuration not stated): 63.8
10) C=C1C(=O)O[C@H]2[C@H]1CC/C(COC(=O)OC/C1=C/CC[C@@]3(C)O[C@H]3[C@H]3OC(=O)[C@@H](CN(C)C)[C@@H]3CC1)=C\CC[C@@]1(C)O[C@@H]21: 63.1

Moving on to another compound below.
The compound `Cc1cccc(CC(=O)c2ccccc2)n1` showed growth equal to 95.5
